src = paper PMC10668032

# System tested: SIX1-Q177R homeodomain (human, UniProt Q15475 108-198, Q177R)
# Sequence: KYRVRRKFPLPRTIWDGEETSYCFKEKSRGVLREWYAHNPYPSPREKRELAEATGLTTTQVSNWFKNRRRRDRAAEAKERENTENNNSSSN
# Assay overview: universal protein binding microarray; Universal all-10-mer PBM (8x60K, AMADID 030236), 300 nM GST-tagged protein, Alexa Fluor 488 anti-GST; buffer, salt, pH and temperature not stated (as in Berger); high values mean tight binding
# Condition info: protein: ivt; tags: N-terminal GST; dsDNA, one strand shown
Whole data set: some 33,000 sequences, median “e-score” near -0.05, cut for the highest 2% near 0.38. The full list was thinned out, with the highest values kept by preference.
// binding signal lookup, one value per entry

[
  {
    "Sequence input": "CCTCACAC",
    "binding signal / E-score": 0.279
  },
  {
    "Sequence input": "GCTCACAC",
    "binding signal / E-score": 0.276
  },
  {
    "Sequence input": "GGAAACAC",
    "binding signal / E-score": 0.374
  },
  {
    "Sequence input": "AACACTGT",
    "binding signal / E-score": 0.344
  },
  {
    "Sequence input": "GTATGGTA",
    "binding signal / E-score": 0.159
  },
  {
    "Sequence input": "AAAAACAC",
    "binding signal / E-score": 0.368
  },
  {
    "Sequence input": "AGGAACAC",
    "binding signal / E-score": 0.394
  },
  {
    "Sequence input": "GCACCGAC",
    "binding signal / E-score": 0.225
  },
  {
    "Sequence input": "GGGAACAC",
    "binding signal / E-score": 0.368
  },
  {
    "Sequence input": "ACTTACAC",
    "binding signal / E-score": 0.449
  }
]
